# Assay details: Single ascending oral dose study in healthy volunteers: plasma pharmacokinetics
# Format: in vivo, human
# Applied conditions: human, plasma, oral, combined 350 and 525 mg group; read-out: tmax, range
Measured endpoint: Tmax

Task: Quick check: Tmax of `Cn1cc(S(=O)(=O)[C@@](C)(F)C2CCN(C(=O)Nc3ccon3)CC2)c(C(F)F)n1` ?
Output: 3 to 6 h

###

# Assay details: Food effect cross-over study, 200 mg (25 mg tablets), healthy volunteers: plasma pharmacokinetics
# Format: in vivo, human
# Applied conditions: human, plasma, oral, 18 hours postdose, Fasted, read-out: Plasma concentration, Median
Measured endpoint: concentration at 18 h (ng/mL)
Express the result in ng/mL but write the number alone.

Task: Quick check: concentration at 18 h of `Cn1cc(S(=O)(=O)[C@@](C)(F)C2CCN(C(=O)Nc3ccon3)CC2)c(C(F)F)n1` ?
Output: 1360
